- measurementDescription: physchem
- Description: Ionization constant (pKa)
Please use YES whenever pKa is not below 7, and NO whenever it is.

Solved cases below.
1) CS(=O)(=O)Nc1ccc(Nc2c3ccccc3nc3ccccc23)c(N)c1
YES
2) CS(=O)(=O)Nc1ccc(Nc2c3ccccc3nc3ccccc23)c(Cl)c1
NO

Does pKa meet or surpass 7 for `CS(=O)(=O)Nc1ccc(Nc2c3ccccc3nc3ccccc23)c([N+](=O)[O-])c1` ?
NO

Dear colleague, could you confirm whether `CS(=O)(=O)Nc1ccc(Nc2c3ccccc3nc3cc(Cl)ccc23)cc1` has pKa at or above 7?
NO

Determine whether measured pKa meets or exceeds 7 for `CS(=O)(=O)Nc1ccc(Nc2c3ccccc3nc3cc(S(C)(=O)=O)ccc23)cc1`
NO

Assess whether reported pKa for `CS(=O)(=O)Nc1ccc(Nc2c3ccccc3nc3ccc(Cl)cc23)cc1` sits at 7 or higher.
NO

These entries and their values trace back to ChEMBL document CHEMBL1121401.
